System: Osteoblasts
protocol.text: Osteoblast growth / toxicity (MTT)
Type: cell-based, rat
run.conditions: 1 pM to 1 μM, 48 h, FIG. 8
value.type: growth / proliferation of the osteoblastic cells

Below are worked cases with known answers.
COc1ccc(-c2coc3cc(O[C@@H]4OC(CO)[C@@H](O)[C@H](O)C4O)cc(O)c3c2=O)cc1 (some centres unmarked) [Compound 6, Biochanin 7-O-glycoside]; proliferation
COc1cc(OC)c(-c2coc3cc(O[C@@H]4OC(COC5OCC(O)(CO)C5O)[C@@H](O)C(O)C4O)c(OC)c(O)c3c2=O)cc1OC (some centres unmarked); proliferation
O=c1c(-c2ccc(O)cc2)coc2cc(O)cc(O)c12; proliferation
COc1ccc(-c2coc3cc(O)cc(O)c3c2=O)cc1; proliferation

Continue with the next molecule.
query: Query (molecule): COc1cc(-c2coc3cc(O)cc(O)c3c2=O)ccc1O ; field requested: growth / proliferation of the osteoblastic cells
result: proliferation
